These entries and their values trace back to paper PMC12223813.

Each entry below lists one item and its recorded pIC50 value.
Test system: HCT-116, human primary colon cancer cell line
Experiment: Antiproliferative activity, MTT assay
Type: cell-based
Conditions: Homo sapiens, HCT-116; 72 h, MTT, mean ± SD
Please treat pIC50 as minus the base-10 logarithm of the molar concentration.

C=C[C@H]1CN2CC[C@H]1C[C@H]2[C@H](O)c1ccnc2ccccc12 [cinchonidine, reference compound]
4.06

# input What pIC50 value was documented for this molecule, O=c1[nH]c(=O)n([C@H]2C[C@H](O)[C@@H](CO)O2)cc1F [floxuridine, reference compound] ?
# output 4.93

# input Could you do the same for COc1cccc2c1C(=O)c1c(O)c3c(c(O)c1C2=O)C[C@@](O)(C(=O)CO)C[C@@H]3O[C@H]1C[C@H](N)[C@H](O)[C@H](C)O1 [doxorubicin, reference compound] , please?
# output 6.22

# input CC[C@H](C)[C@H]1O[C@]2(CC[C@@H]1C)C[C@@H]1C[C@@H](C/C=C(\C)[C@@H](O[C@H]3C[C@H](OC)[C@@H](O[C@H]4C[C@H](OC)[C@@H](O)[C@H](C)O4)[C@H](C)O3)[C@@H](C)/C=C/C=C3\CO[C@@H]4[C@H](O)C(C)=C[C@@H](C(=O)O1)[C@]34O)O2 ?
# output 5.00

###

System: HCT-116, human primary colon cancer cell line
Assay: Antiproliferative activity, MTT assay
Assay type: cell-based
Conditions: Homo sapiens, HCT-116; 72 h, MTT, mean ± SD
Each item that follows carries a reported IC50.
Give your result in µM as a bare value.

C=C[C@H]1CN2CC[C@H]1C[C@@H]2[C@@H](OC(=O)O[C@@H]1/C(C)=C/C[C@@H]2C[C@@H](C[C@]3(CC[C@H](C)[C@@H]([C@@H](C)CC)O3)O2)OC(=O)[C@@H]2C=C(C)[C@@H](O)[C@H]3OC/C(=C\C=C\[C@@H]1C)[C@]32O)c1ccnc2ccc(OC)cc12 [compound 5, Ivermectin–Quinidine Conjugate]
13.8
CC[C@H](C)[C@H]1O[C@]2(CC[C@@H]1C)C[C@@H]1C[C@@H](C/C=C(\C)[C@@H](OC(=O)N[C@H]3CCc4cc(OC)c(OC)c(OC)c4-c4ccc(SC)c(=O)cc43)[C@@H](C)/C=C/C=C3\CO[C@@H]4[C@H](O)C(C)=C[C@@H](C(=O)O1)[C@]34O)O2
7.5
Cc1cn([C@H]2C[C@H](N=[N+]=[N-])[C@@H](CO)O2)c(=O)[nH]c1=O [azidothymidine, reference compound]
60.2
C[C@H]1[C@H](OC(=O)CCC(=O)O)O[C@@H]2O[C@@]3(C)CC[C@H]4[C@H](C)CC[C@@H]1[C@@]24OO3 [artesunate, reference compound]
37.8
C=C(C)C1CCC2(C(=O)OCc3cn(CC(=O)OC4C(C)=CCC5CC(CC6(CCC(C)C(C(C)CC)O6)O5)OC(=O)C5C=C(C)C(O)C6OCC(=CC=CC4C)C56O)nn3)CCC3(C)C(CCC4C5(C)CCC(O)C(C)(C)C5CCC43C)C12 (stereo not drawn) [compound 15, Ivermectin–Betulinic Acid Conjugate]
70.1

# input Reported IC50, compound C=C[C@H]1C[N@@]2CC[C@H]1C[C@@H]2[C@@H](O)c1ccnc2ccccc12 [cinchonine, reference compound] : ____
# output 78.2

# input C=C[C@H]1C[N@@]2CC[C@H]1C[C@H]2[C@H](O)c1ccnc2ccc(OC)cc12 [quinine, reference compound] ?
# output 32.8

# input Now consider CCC(C)C1OC2(CCC1C)CC1CC(CC=C(C)C(OC(=O)OCC3OC(n4cc(C)c(=O)[nH]c4=O)CC3N=[N+]=[N-])C(C)C=CC=C3COC4C(O)C(C)=CC(C(=O)O1)C34O)O2 (stereo not drawn) [compound 11, Ivermectin–Azidothymidine Conjugate] and answer again.
# output 7.7

# input // same read-out, input: C=C[C@H]1CN2CC[C@H]1C[C@H]2[C@H](OC(=O)O[C@@H]1/C(C)=C/C[C@@H]2C[C@@H](C[C@]3(CC[C@H](C)[C@@H]([C@@H](C)CC)O3)O2)OC(=O)[C@@H]2C=C(C)[C@@H](O)[C@H]3OC/C(=C\C=C\[C@@H]1C)[C@]32O)c1ccnc2ccccc12 [compound 7, Ivermectin–Cinchonidine Conjugate]
# output 20.1
